Give CC50 for every item shown.
- PROTOCOL SUMMARY: in vitro
- EXPERIMENTAL CONDITIONS: African green monkey

**Query** Supply CC50 value. Item: CCCCCCCOC(=O)ONc1ccn([C@@H]2O[C@H](CO)[C@H](O)C2O)c(=O)n1 (stereo partly drawn) [drawing 78]
**Result** > 100 µg/mL

**Query** Supply CC50 value. Item: CC1(O)[C@@H](O)[C@@H](CO)O[C@H]1n1ccc(NO)nc1=O (stereo partly drawn)
**Result** > 100 µg/mL

**Query** Supply CC50 value. Item: CONc1ccn([C@@H]2O[C@H](CO)[C@H](O)C2O)c(=O)n1 (stereo partly drawn)
**Result** > 100 µg/mL
